Method Summary: Pharmacokinetic study of PDC in rat plasma after oral administration of pure PDC or IRE (LC-MS/MS)
Type: in vivo, Sprague-Dawley rats
Conditions Used: male, Sprague-Dawley, PDC in rat plasma, 42 mg/kg PDC (IRE dosage equivalent to PDC dosage), n = 6, mean ± SD, read-out: Vz/F
Parameter Measured: Vd/F (L/kg)
Report as a plain number; the unit L/kg is understood.

Note down Vd/F recorded for C[C@@H]1CC[C@]2(C(=O)O[C@@H]3O[C@H](CO)[C@@H](O)[C@H](O)[C@H]3O)CC[C@]3(C)C(=CC[C@@H]4[C@@]5(C)CC[C@H](O)[C@@](C)(CO)[C@@H]5CC[C@]43C)[C@@H]2[C@]1(C)O [PDC, Pedunculoside]
287

* * *

Method Summary: Pharmacokinetic study of PDC in rat plasma after oral administration of pure PDC or IRE (LC-MS/MS)
Type: in vivo, Sprague-Dawley rats
Conditions Used: male, Sprague-Dawley, PDC in rat plasma, 84 mg/kg PDC (IRE dosage equivalent to PDC dosage), n = 6, mean ± SD, read-out: Vz/F
Parameter Measured: Vd/F

Note down Vd/F recorded for C[C@@H]1CC[C@]2(C(=O)O[C@@H]3O[C@H](CO)[C@@H](O)[C@H](O)[C@H]3O)CC[C@]3(C)C(=CC[C@@H]4[C@@]5(C)CC[C@H](O)[C@@](C)(CO)[C@@H]5CC[C@]43C)[C@@H]2[C@]1(C)O [PDC, Pedunculoside]
273 L/kg

* * *

Method Summary: Pharmacokinetic study of PDC in rat plasma after oral administration of pure PDC or IRE (LC-MS/MS)
Assay type: in vivo, Sprague-Dawley rats
Conditions Used: male, Sprague-Dawley, PDC in rat plasma, 84 mg/kg PDC (IRE dosage equivalent to PDC dosage), n = 6, mean ± SD
Parameter Measured: AUC(0-inf)
Please give the number followed by its unit.

Note down AUC(0-inf) recorded for C[C@@H]1CC[C@]2(C(=O)O[C@@H]3O[C@H](CO)[C@@H](O)[C@H](O)[C@H]3O)CC[C@]3(C)C(=CC[C@@H]4[C@@]5(C)CC[C@H](O)[C@@](C)(CO)[C@@H]5CC[C@]43C)[C@@H]2[C@]1(C)O [PDC, Pedunculoside]
665 ng·h/mL

* * *

Method Summary: Pharmacokinetic study of PDC in rat plasma after oral administration of pure PDC or IRE (LC-MS/MS)
Assay type: in vivo, Sprague-Dawley rats
Conditions Used: male, Sprague-Dawley, PDC in rat plasma, 84 mg/kg PDC (IRE dosage equivalent to PDC dosage), n = 6, mean ± SD, read-out: t1/2z (converted)
Parameter Measured: half-life (h)
Report as a plain number; the unit h is understood.

Note down half-life recorded for C[C@@H]1CC[C@]2(C(=O)O[C@@H]3O[C@H](CO)[C@@H](O)[C@H](O)[C@H]3O)CC[C@]3(C)C(=CC[C@@H]4[C@@]5(C)CC[C@H](O)[C@@](C)(CO)[C@@H]5CC[C@]43C)[C@@H]2[C@]1(C)O [PDC, Pedunculoside]
1.5

* * *

Method Summary: Pharmacokinetic study of PDC in rat plasma after oral administration of pure PDC or IRE (LC-MS/MS)
Type: in vivo, Sprague-Dawley rats
Conditions Used: male, Sprague-Dawley, PDC in rat plasma, 42 mg/kg PDC (IRE dosage equivalent to PDC dosage), n = 6, mean ± SD
Procedure: The analytical procedures described in Section 3.3 were performed to quantify PDC in rat plasma samples obtained from 24 male Sprague-Dawley rats. Out of these rats, 12 were orally administered with pure PDC, whereas 12 were orally administered with IRE. […] The pharmacokinetic parameters including Cmax, Tmax, t1/2z, AUC0–t, AUC0–∞, CLz/F, and Vz/F were calculated by non-compartmental method using the DAS 2.0 pharmacokinetics program (Chinese Pharmacology Society, Beijing, China). […]
Parameter Measured: AUC(0-t) (µg·h/mL)
Report as a plain number; the unit µg·h/mL is understood.

Note down AUC(0-t) recorded for C[C@@H]1CC[C@]2(C(=O)O[C@@H]3O[C@H](CO)[C@@H](O)[C@H](O)[C@H]3O)CC[C@]3(C)C(=CC[C@@H]4[C@@]5(C)CC[C@H](O)[C@@](C)(CO)[C@@H]5CC[C@]43C)[C@@H]2[C@]1(C)O [PDC, Pedunculoside]
0.374

* * *

Method Summary: Pharmacokinetic study of PDC in rat plasma after oral administration of pure PDC or IRE (LC-MS/MS)
Assay type: in vivo, Sprague-Dawley rats
Conditions Used: male, Sprague-Dawley, PDC in rat plasma, 84 mg/kg PDC (IRE dosage equivalent to PDC dosage), n = 6, mean ± SD, read-out: MRT0–∞
Parameter Measured: MRT inf (h)
Report as a plain number; the unit h is understood.

Note down MRT inf recorded for C[C@@H]1CC[C@]2(C(=O)O[C@@H]3O[C@H](CO)[C@@H](O)[C@H](O)[C@H]3O)CC[C@]3(C)C(=CC[C@@H]4[C@@]5(C)CC[C@H](O)[C@@](C)(CO)[C@@H]5CC[C@]43C)[C@@H]2[C@]1(C)O [PDC, Pedunculoside]
3.15

* * *

Method Summary: Pharmacokinetic study of PDC in rat plasma after oral administration of pure PDC or IRE (LC-MS/MS)
Type: in vivo, Sprague-Dawley rats
Conditions Used: male, Sprague-Dawley, PDC in rat plasma, 42 mg/kg PDC (IRE dosage equivalent to PDC dosage), n = 6, mean ± SD, read-out: MRT0–∞
Parameter Measured: MRT inf (h)
Report as a plain number; the unit h is understood.

Note down MRT inf recorded for C[C@@H]1CC[C@]2(C(=O)O[C@@H]3O[C@H](CO)[C@@H](O)[C@H](O)[C@H]3O)CC[C@]3(C)C(=CC[C@@H]4[C@@]5(C)CC[C@H](O)[C@@](C)(CO)[C@@H]5CC[C@]43C)[C@@H]2[C@]1(C)O [PDC, Pedunculoside]
3.33
